ASSAY NOTES: MRT (0 to infinity) in Sprague-Dawley rat at 5 mg/kg, iv administered as single dose by LC-MS/MS analysis
Type: ADME, organism-based
EXPERIMENTAL PARAMETERS: in vivo
READOUT NAME: MRT inf (min)
The answer is to be given in min; state only the numeric part.

Could you please provide reported MRT inf for Cl.Oc1ccc2[nH]c(-c3ccc4c(Cl)cc(Cl)c(O)c4n3)cc2c1 ? Thanks! 24.6

###

ASSAY NOTES: Tmax in Sprague-Dawley rat at 30 mg/kg, po by LC-MS/MS analysis
Assay type: ADME, organism-based
EXPERIMENTAL PARAMETERS: in vivo
READOUT NAME: Tmax (min)
Dear colleague, please return just the value in min, with no unit written.

Please give measured Tmax of the following entry: Cl.Oc1ccc2[nH]c(-c3ccc4c(Cl)cc(Cl)c(O)c4n3)cc2c1 30
